# Test system: NCI-H522 lung
# assay.name: NCI-60 one-dose screen, 48 h (100 = growth as untreated, 0 = no growth, -100 = all killed)
# recorded.conditions: 10 µM
# Procedure: Growth inhibition of the NCI-H522 human Non-Small Cell Lung tumor cell line is measured as a screen for anti-cancer activity. Cells are grown in 96 well plates and exposed to the test compound for 48 hours. Compounds are tested at a single concentration, which is 10^-5 M for most compounds. The reported endpoint is percent growth (GI% or GIPRCNT), where numbers from 0 - 100% represent growth inhibition, and numbers from -100% - 0 represent cell death. […]
This is part of a sample that, as a whole, favours compounds with a hit. Of some 83,000 tested, about 20% had one in any assay.
Could you please report measured growth for the items listed next?
Numbers only, in %.

[
  {
    "compound": "CCc1ccc(Nc2cc(C)nc3nc(C)nn23)cc1",
    "unit.abbreviation": "%",
    "growth": -14.6
  },
  {
    "compound": "O=C(O)CN1C(=O)C=CC1=O",
    "unit.abbreviation": "%",
    "growth": 103
  },
  {
    "compound": "Fc1ccc(Nc2ccnc(N3CCN(c4ccnc5cc(Cl)ccc45)CC3)n2)cc1",
    "unit.abbreviation": "%",
    "growth": 43.4
  },
  {
    "compound": "COc1ccc2nc(C)cc(Nc3ccc(Cl)cc3)c2c1",
    "unit.abbreviation": "%",
    "growth": 105
  },
  {
    "compound": "COc1cc(-c2cc(-c3cc(OC)c(OC)c(OC)c3)nc3nc(N)[nH]c(=O)c23)ccc1Oc1ccnc2cc(Cl)ccc12",
    "unit.abbreviation": "%",
    "growth": 29.9
  }
]

Give growth for all compounds that follow.
1. CCNC1(NC#N)CCCCC1
2. c1ccc(OCCC[P+](c2ccccc2)(c2ccccc2)c2ccccc2)cc1

1. 123
2. -7.37

Give growth for all compounds that follow.
1. COc1cc(CSc2nc3ccc(Cl)cc3c(=O)n2Cc2ccccc2)cc(OC)c1OC
2. CC(=O)c1c(O)cc2c3c1OC(C)(C)C1CCC(C)(CC31)O2 (stereo not drawn)
3. CC(C)C[C@H](NC(=O)Cn1ccc(Nc2ccccc2)cc1=O)B(O)O

[-0.0842, 102, -24]

Give growth for all compounds that follow.
1. COc1ccccc1CNCCCN1C(=O)c2ccc3c4c(ccc(c24)C1=O)C(=O)N(CCCNCCNCCCN)C3=O
2. CC(CNC(Cc1ccccc1)c1ccccc1)NC(Cc1ccccc1)c1ccccc1 (stereo not drawn)
3. O=C(COc1ccc(-c2nc3ccccc3[nH]2)cc1)N=Nc1c(O)[nH]c2ccccc12
4. c1ccc(CNc2nc(Nc3ccc(-c4nc5ccccc5[nH]4)cc3)c3cn[nH]c3n2)cc1
5. CS(=O)(=O)Nc1ccc(OCc2nnc(-c3ccc(Cl)cc3)o2)c(F)c1
6. COC(=O)c1cnc2c(c1)Oc1ccccc1-c1ccnn1-2

-0.0156
9.37
94
-45.7
94.8
80.3

Give growth for all compounds that follow.
1. CC(C)c1[nH]nc2c(NCc3ccc(-c4ccccn4)cc3)nc(SCCN)nc12
2. COc1cc(C2CC(=O)Nc3c2c(C)nn3-c2nc3ccccc3[nH]2)cc(OC)c1O (stereo not drawn)
3. CCCCCCCCCCCC(c1ccccc1)N(C)C (stereo not drawn)
4. C=CCNC(=S)NN

-54.8
64.8
103
91.6

Ref: PubChem BioAssay (NCI)
